The following molecules are listed with their measured Population Apoptotic (%) values.
- System: U2OS
- METHOD: Multiplex assay against U2OS
- Format: toxicity, cell-based
- MEASUREMENT_CONTEXT: human, 12 h, 10 µM, compound concentration 10 uM, replicate 2
Hi! Could you send only the number? It should be in %, unit omitted.

O=C(O)Cc1ccccc1Nc1c(Cl)cccc1Cl | 72

Input line: Quote Population Apoptotic (%) with test system U2OS for CN(C)c1ccnc2sc3c(=O)n(N4CCCCCC4)cnc3c12
Output line: 88

Input line: Quote Population Apoptotic (%) with test system U2OS for O=C1COc2nccc(-c3ccccc3F)c2CN1Cc1cc(C(F)(F)F)cc(C(F)(F)F)c1
Output line: 100

Input line: Quote Population Apoptotic (%) with test system U2OS for Cc1nc2ccc(Oc3ccc(F)cc3)cc2c(=O)n1C[C@H]1CCCN(C(C)C)C1.Cl
Output line: 78

Input line: Quote Population Apoptotic (%) with test system U2OS for Cc1ccc(C(C)(O)c2nc3ccccc3s2)c(C)c1 (stereo not given)
Output line: 66

Input line: Quote Population Apoptotic (%) with test system U2OS for N[C@@]1(C(=O)O)CO[C@H]2[C@H](C(=O)O)[C@H]21
Output line: 80

Input line: Quote Population Apoptotic (%) with test system U2OS for CCCn1c(=O)c2[nH]c(C3CCCC3)nc2n(CCC)c1=O
Output line: 100

Input line: Quote Population Apoptotic (%) with test system U2OS for O=S(=O)(c1ccccc1)c1cnc2c(N3CCNCC3)cccc2c1 [INTEPIRDINE]
Output line: 85

Input line: Quote Population Apoptotic (%) with test system U2OS for Oc1c(CN2CCN(c3ccccn3)CC2)cc(Cl)c2cccnc12
Output line: 87

Input line: Quote Population Apoptotic (%) with test system U2OS for CN1CCN2c3ncccc3Cc3ccccc3C2C1 (stereo not given)
Output line: 66

###

- Test system: HEK-293T
- METHOD: Multiplex assay against HEK293T
- Format: toxicity, cell-based
- MEASUREMENT_CONTEXT: human, 24 h, 1 µM, compound concentration 1 uM, replicate 1
Under this convention, criterion met denotes Population Tubulin-Different-Phenotype (%) strictly below 20% and criterion not met denotes Population Tubulin-Different-Phenotype (%) at or above 20%.

See these solved cases before continuing.
Oc1c(CN2CCN(c3ccccn3)CC2)cc(Cl)c2cccnc12 | criterion not met
O=C1COc2nccc(-c3ccccc3F)c2CN1Cc1cc(C(F)(F)F)cc(C(F)(F)F)c1 | criterion not met
Cc1ccc(F)cc1C(=O)Nc1ccc(C(=O)N2Cc3cccn3Cc3ccccc32)c(Cl)c1 [LIXIVAPTAN] | criterion not met
CN1CCN(c2nc3cc(C(F)(F)F)ccc3n3cccc23)CC1.O=C(O)/C=C\C(=O)O.O=C(O)/C=C\C(=O)O | criterion not met
C[C@H](NC(=O)c1c(C(F)F)nn(C)c1Oc1cccc(C(F)(F)F)c1)c1ccc(C(=O)O)cc1 [PALUPIPRANT] | criterion met

Input line: Does the reported Population Tubulin-Different-Phenotype (%) of c1cc(OCCCN2CCCCC2)ccc1CN1CCCCC1 [JNJ-5207852] stay below 20%?
Output line: criterion met

Input line: Does the reported Population Tubulin-Different-Phenotype (%) of CC[C@H]1OC(=O)[C@H](C)[C@@H](O[C@H]2C[C@@](C)(OC)[C@@H](O)[C@H](C)O2)[C@H](C)[C@@H](O[C@@H]2O[C@H](C)C[C@H](N(C)C)[C@H]2O)[C@@]2(C)CC(C)=C(O2)[C@H](C)[C@@H](O)[C@]1(C)O stay below 20%?
Output line: criterion not met

Input line: Does the reported Population Tubulin-Different-Phenotype (%) of CN(C)CCCc1cc(C(=O)Nc2ccc(-c3ccncc3)cc2)ccc1O.Cl.Cl stay below 20%?
Output line: criterion not met

Entry source: ChEMBL document CHEMBL5058577
